The origin of these recorded values is PubChem BioAssay (NCATS).

# System: HEK293T
# assay_procedure: qHTS assay to identify novel small-molecules to repurpose for Merkel cell carcinoma treatment (AID 1296009); further: nearly all actives have a fitted effect of over 60% in size
# run_parameters: MCC and control cell lines, CellTiter-Glo viability, 72 h; at 44.8 µM (top of the series) unless noted
Inconclusive results are not listed. Calls of active or inactive are those of the source. The call rests on the fitted dose curve; in most records, active means well fitted inhibition curve with a large enough effect; inconclusive means small, poorly fitted or top-dose-only effect; inactive means flat fitted curve, though single readings scatter.
measured_endpoint: outcome

Use these answered entries as a reference point.
compound: O=C(NCCO[N+](=O)[O-])c1cccnc1
outcome: inactive

compound: CC(=O)Nc1ccc(O)cc1
outcome: inactive

compound: CNC[C@@H](O)[C@@H](O)[C@H](O)[C@H](O)CO
outcome: inactive

compound: Cc1ccc(C(=O)c2cc(O)c(O)c([N+](=O)[O-])c2)cc1
outcome: inactive

compound: COc1ccc(C2(C#N)CCC(C(=O)O)CC2)cc1OC1CCCC1 (configuration not stated)
outcome: inactive

compound: CC1=C(C)C(=O)C(C(CCCCCC(=O)O)c2ccccc2)=C(C)C1=O (configuration not stated)
outcome: inactive

compound: CC(C)[C@H](N)C(=O)OCCOCn1cnc2c(=O)[nH]c(N)nc21
outcome: inactive

compound: Cc1cc(=O)oc2cc(O)ccc12
outcome: inactive

Parameters: items (list). Returns: outcome for each item.
1. Nc1cc(C(Cl)=C(Cl)Cl)c(S(N)(=O)=O)cc1S(N)(=O)=O
2. CC1=C(C(=O)O)N2C(=O)[C@@H](NC(=O)[C@H](N)C3=CCC=CC3)[C@H]2SC1
3. COC(=O)N[C@H](C(=O)N[C@@H](Cc1ccccc1)[C@@H](O)CN(Cc1ccc(-c2ccccn2)cc1)NC(=O)[C@@H](NC(=O)OC)C(C)(C)C)C(C)(C)C
4. CC1(C)CCC(C)(C)c2cc(NC(=O)c3ccc(C(=O)O)cc3)ccc21
5. CCC1=C(C)CN(C(=O)NCCc2ccc(S(=O)(=O)NC(=O)NC3CCC(C)CC3)cc2)C1=O (configuration not stated)
6. C[C@]12CCC(=O)C=C1CC[C@@H]1[C@H]2[C@@H](O)C[C@@]2(C)[C@H]1CC[C@]2(O)C(=O)CO

A.
inactive
inactive
inactive
inactive
inactive
inactive

====

# assay_procedure: qHTS of pediatric cancer cell lines to identify multiple opportunities for drug repurposing: Confirmatory screen for SK-N-MC cells (AID 1347111);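 further: cells exposed to compound for 48 h before the readout; nearly all actives have a fitted effect of over 70% in size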
# run_parameters: SK-N-MC cell viability; series mostly up to 45.9 µM
# Protocol: Drug repurposing or repositioning has been offered as a strategy for drug development in oncology programs. […] [1] Shen, M et al. Quantitative high-throughput phenotypic screening of pediatric cancer cell lines identifies multiple opportunities for drug repurposing. […] Cells were assayed in growth media at a density of 500-1,000 cells/well. […] After a 15 min incubation at room temperature, samples were analyzed for luminescence intensity using a ViewLux High-throughput CCD imager equipped with clear filters.
Records with an inconclusive call do not appear. Activity calls are given as the source filed them. Calls come from the whole dose curve; as a rule, active = well fitted cell-killing curve with a large enough effect; inconclusive = small, poorly fitted or top-dose-only effect; inactive = no such curve, though single readings can be large or run the other way.
Tick one outcome: active, inactive

Check out these entries, answers already filled in.
compound: c1cnc2cc3c(cc2n1)C1CNCC3C1
category_label: inactive
//
compound: CN(C)c1ccc2nc3ccc(=[N+](C)C)cc-3sc2c1
category_label: active
//
compound: O=C(NCC1CCCCN1)c1cc(OCC(F)(F)F)ccc1OCC(F)(F)F (stereo not given)
category_label: active
//
compound: CCN(CCO)CCCC(C)Nc1ccnc2cc(Cl)ccc12 (stereo not given)
category_label: inactive
//
compound: CC(C)C[C@H](NC(=O)[C@H](Cc1ccccc1)NC(=O)c1cnccn1)B(O)O
category_label: active
//
compound: CCCCc1ccc2nc(NC(=O)OC)[nH]c2c1
category_label: active
//
compound: Nc1nc(Cl)nc2c1ncn2[C@H]1C[C@H](O)[C@@H](CO)O1
category_label: active
//
compound: CCCOc1ccc2nc(NC(=O)OC)[nH]c2c1
category_label: active
//
compound: CC(=O)O[C@H]1C(=O)[C@@]2(C)C([C@H](OC(=O)c3ccccc3)[C@]3(O)C[C@H](OC(=O)[C@H](O)[C@@H](NC(=O)c4ccccc4)c4ccccc4)C(C)=C1C3(C)C)[C@]1(OC(C)=O)CO[C@@H]1C[C@@H]2O (stereo not given in full)
category_label: active

Q. Please let me know the test result on file for Clc1ccc(C(Cn2ccnc2)OCc2ccsc2Cl)c(Cl)c1 (stereo not given) .
A. active
